Assay: Stability of ingredients in gastric pH solution (pH 1.2, 37°C)
Format: physicochemical
Conditions: 1 h, pH 1.2
READOUT KIND: Stability in gastric pH solution, Quantitative value (ng/mL)

INSERT INTO assay_data (molecule, units, result_value) VALUES
  ('CC(C)=CCC[C@](C)(O[C@@H]1O[C@H](CO)[C@@H](O)[C@H](O)[C@H]1O)[C@H]1CC[C@]2(C)[C@@H]1[C@H](O)C[C@@H]1[C@@]3(C)CC[C@H](O[C@@H]4O[C@H](CO)[C@@H](O)[C@H](O)[C@H]4O[C@@H]4O[C@H](CO)[C@@H](O)[C@H](O)[C@H]4O)C(C)(C)[C@@H]3CC[C@]12C [Ginsenoside Rd]', 'ng/mL', 68.1),
  ('O=C1C[C@@H](c2ccc(O[C@@H]3O[C@H](CO)[C@@H](O)[C@H](O)[C@H]3O)cc2)Oc2cc(O)ccc21', 'ng/mL', 1830),
  ('C[C@@H]1O[C@@H](O[C@H]2[C@H](Oc3cc(O)c4c(c3)O[C@H](c3ccc(O)cc3)CC4=O)O[C@H](CO)[C@@H](O)[C@@H]2O)[C@H](O)[C@H](O)[C@H]1O', 'ng/mL', 1060),
  ('C[C@@H]1O[C@@H](OC[C@H]2O[C@@H](Oc3cc(O)c4c(c3)O[C@H](c3ccc(O)cc3)CC4=O)[C@H](O)[C@@H](O)[C@@H]2O)[C@H](O)[C@H](O)[C@H]1O', 'ng/mL', 1700),
  ('CC(C)=CCC[C@](C)(O[C@@H]1O[C@H](CO[C@@H]2OC[C@H](O)[C@H](O)[C@H]2O)[C@@H](O)[C@H](O)[C@H]1O)[C@H]1CC[C@]2(C)[C@@H]1[C@H](O)C[C@@H]1[C@@]3(C)CC[C@H](O[C@@H]4O[C@H](CO)[C@@H](O)[C@H](O)[C@H]4O[C@@H]4O[C@H](CO)[C@@H](O)[C@H](O)[C@H]4O)C(C)(C)[C@@H]3CC[C@]12C [Ginsenoside Rb2]', 'ng/mL', 168),
  ('CC(C)=CCC[C@](C)(O[C@@H]1O[C@H](CO[C@@H]2O[C@@H](CO)[C@H](O)[C@H]2O)[C@@H](O)[C@H](O)[C@H]1O)[C@H]1CC[C@]2(C)[C@@H]1[C@H](O)C[C@@H]1[C@@]3(C)CC[C@H](O[C@@H]4O[C@H](CO)[C@@H](O)[C@H](O)[C@H]4O[C@@H]4O[C@H](CO)[C@@H](O)[C@H](O)[C@H]4O)C(C)(C)[C@@H]3CC[C@]12C [Ginsenoside Rc]', 'ng/mL', 115),
  ('COc1c(CC=C(C)C)c(O)cc2oc(=O)c(-c3ccc(O)cc3O)cc12', 'ng/mL', 7.09),
  ('CCCCC[C@H](O)CC(=O)CCc1ccc(O)c(OC)c1 [[6]-Gingerol, [6]-Gingerol]', 'ng/mL', 154),
  ('O=C(/C=C/c1ccc(O)cc1)c1ccc(O)cc1O', 'ng/mL', 15.5),
  ('COc1ccc(-c2cc(=O)c3c(OC)c(OC)c(OC)c(OC)c3o2)cc1OC', 'ng/mL', 21.5),
  ('CC(C)=CCC[C@](C)(O[C@@H]1O[C@H](CO[C@@H]2O[C@H](CO)[C@@H](O)[C@H](O)[C@H]2O)[C@@H](O)[C@H](O)[C@H]1O)[C@H]1CC[C@]2(C)[C@@H]1[C@H](O)C[C@@H]1[C@@]3(C)CC[C@H](O[C@@H]4O[C@H](CO)[C@@H](O)[C@H](O)[C@H]4O[C@@H]4O[C@H](CO)[C@@H](O)[C@H](O)[C@H]4O)C(C)(C)[C@@H]3CC[C@]12C [Ginsenoside Rb1]', 'ng/mL', 202),
  ('COc1ccc(-c2oc3c(OC)c(OC)c(OC)c(OC)c3c(=O)c2OC)cc1OC', 'ng/mL', 30.7);
